- targetDesc: C2BBe1 fixed cells
- testSummary: competition ELISA on fixed cells; vs GST-HAX42
Ends that are not written are not given here. * marks the point of attachment. Dansyl = CN(C)c1cccc2c(S(=O)(=O)*)cccc12
quantityKind: IC50 (nM)

[I] K(Dansyl)STPPSREAYSRPYSVDSDSDTNAKHSSHNRRLRTRSRPNG-NH2 [ELAN018(PAX2)]
[II] K(Dansyl)SDHALGTNLRSDNAKEPGDYNCCGNGNSTGRKVFNRRRPSAIPT-NH2 (cysteine pairing not given here) [ELAN021(HAX42)]
Looking at recorded values for IC50, does I or II come in lower? Please reply using the label of the selected record.
I
(I: 230 nM, II: 5500 nM)
